- TGT: PIM2 (Homo sapiens (Human), UniProt Q9P1W9)
- Sequence (Q9P1W9 whole entry, species assumed): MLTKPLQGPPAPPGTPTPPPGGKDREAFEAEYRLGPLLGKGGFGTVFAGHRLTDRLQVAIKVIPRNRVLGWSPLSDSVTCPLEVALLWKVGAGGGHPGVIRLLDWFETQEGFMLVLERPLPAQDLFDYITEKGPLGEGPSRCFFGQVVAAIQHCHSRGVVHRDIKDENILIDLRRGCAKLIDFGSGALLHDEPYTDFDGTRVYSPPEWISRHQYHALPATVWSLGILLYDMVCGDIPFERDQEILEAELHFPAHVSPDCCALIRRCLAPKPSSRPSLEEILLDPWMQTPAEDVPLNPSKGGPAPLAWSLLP
- METHOD NOTES: Pim2 ATP depletion assay
- Type: biochemical
- CONDITION PARAMETERS: 4 μM ATP, 10 μM BAD peptide
# IC50 per entry

> print(dat)
                                   compound  measured.value
1  N[C@H]1CCCN(c2ncncc2Nc2cccc3cnc(-c4c(F)cccc4F)nc23)C1 [Example 12]         > 25 µM
2  N[C@H]1CN(c2ccncc2Nc2cccc3cnc(-c4c(F)cccc4F)nc23)CC[C@@H]1F [Example 10]         > 25 µM

IC50 on PIM2 (Homo sapiens (Human), UniProt Q9P1W9) for NC1CCCCN(c2ccncc2Nc2cccc3cnc(-c4c(F)cccc4F)nc23)C1 (stereo not drawn) [Example 11] is > 25 µM
